Target: T1, human MSLN-His-Avi (human, UniProt Q13421 296-598, single biotin (BirA) in the biotinylated form)
T1 construct: Monomeric, made in HEK293-6E; Used both immobilised and in solution; also called hMSLN-His-Avi; biotinylated hMSLN-His-Avi
T1 sequence (Q13421 other isoform, or with tags, fused parts or gaps): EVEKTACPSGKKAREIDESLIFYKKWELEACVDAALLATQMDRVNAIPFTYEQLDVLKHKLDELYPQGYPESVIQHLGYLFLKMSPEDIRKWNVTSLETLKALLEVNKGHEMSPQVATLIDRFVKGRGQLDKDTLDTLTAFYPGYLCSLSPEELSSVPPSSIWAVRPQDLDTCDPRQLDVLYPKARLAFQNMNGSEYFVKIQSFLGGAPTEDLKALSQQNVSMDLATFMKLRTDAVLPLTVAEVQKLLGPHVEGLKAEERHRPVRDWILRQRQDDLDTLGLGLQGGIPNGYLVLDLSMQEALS
Test: SPR (Biacore), mAb^2 captured on Protein G, MSLN in solution injected
Procedure: Binding of the selected anti-MSLN clones in mAb² format, to recombinant human and cyno MSLN-His-Avi antigen was measured by SPR using a Biacore T200 processing unit (GE Healthcare). […] To assess the binding properties of the clones, binding kinetics to immobilised MSLN antigen were determined as described in section 2.1.2 and compared to the kinetics obtained when MSLN antigens in solution bound to captured clones. […]
experimental endpoint: Kd (nM)

1. FS22-053-008-AA/FS28-256-026 mAb^2 (bispecific antibody, human IgG1, kappa, L234A L235A, V domains shown) VH: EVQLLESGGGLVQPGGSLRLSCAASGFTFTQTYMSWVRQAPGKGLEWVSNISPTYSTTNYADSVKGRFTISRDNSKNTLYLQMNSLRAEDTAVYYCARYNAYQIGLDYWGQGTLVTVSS VL: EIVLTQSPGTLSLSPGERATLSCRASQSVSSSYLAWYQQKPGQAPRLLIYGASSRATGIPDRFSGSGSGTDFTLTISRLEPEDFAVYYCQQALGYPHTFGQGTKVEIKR = 62.3
2. FS22-053-008-AA/FS28-256-012 mAb^2 (bispecific antibody, human IgG1, kappa, L234A L235A, V domains shown) VH: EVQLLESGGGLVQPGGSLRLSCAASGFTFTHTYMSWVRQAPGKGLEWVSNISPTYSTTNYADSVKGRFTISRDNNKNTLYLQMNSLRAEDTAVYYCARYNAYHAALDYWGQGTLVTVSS VL: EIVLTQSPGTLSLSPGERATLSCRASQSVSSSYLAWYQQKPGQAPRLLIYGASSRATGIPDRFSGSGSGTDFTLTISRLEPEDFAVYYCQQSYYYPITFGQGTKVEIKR = 861
3. FS22-053-008-AA/FS28-024 mAb^2 (bispecific antibody, human IgG1, kappa, L234A L235A, V domains shown, also called FS28-024 (in FS22-053-008-AA mAb^2 format); FS28-024 (in CD137 mAb2 format)) VH: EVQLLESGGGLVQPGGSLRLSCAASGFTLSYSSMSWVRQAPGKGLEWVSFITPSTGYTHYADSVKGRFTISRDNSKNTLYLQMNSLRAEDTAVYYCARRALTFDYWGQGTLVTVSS VL: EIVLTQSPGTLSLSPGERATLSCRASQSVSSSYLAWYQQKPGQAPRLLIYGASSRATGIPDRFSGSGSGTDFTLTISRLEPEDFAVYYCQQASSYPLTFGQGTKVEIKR = 46.5
4. FS22-053-008-AA/FS28-256-027 mAb^2 (bispecific antibody, human IgG1, kappa, L234A L235A, V domains shown) VH: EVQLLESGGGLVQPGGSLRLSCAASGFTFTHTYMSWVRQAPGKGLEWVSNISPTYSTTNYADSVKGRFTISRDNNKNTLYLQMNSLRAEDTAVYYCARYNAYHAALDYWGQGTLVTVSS VL: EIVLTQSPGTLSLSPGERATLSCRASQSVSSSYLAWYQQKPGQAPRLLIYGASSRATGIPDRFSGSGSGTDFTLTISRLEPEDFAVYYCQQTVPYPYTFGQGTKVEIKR = 6
5. FS22-053-008-AA/FS28-024-051 mAb^2 (bispecific antibody, human IgG1, kappa, L234A L235A, V domains shown, also called FS28-024-51) VH: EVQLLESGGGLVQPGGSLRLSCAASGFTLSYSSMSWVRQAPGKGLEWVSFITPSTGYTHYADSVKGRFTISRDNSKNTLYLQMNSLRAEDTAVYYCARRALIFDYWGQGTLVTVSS VL: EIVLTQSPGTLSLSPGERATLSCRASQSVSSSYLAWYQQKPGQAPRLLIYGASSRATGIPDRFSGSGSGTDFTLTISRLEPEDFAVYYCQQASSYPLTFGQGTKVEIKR = 47.5
6. FS22-053-008-AA/FS28-024-060 mAb^2 (bispecific antibody, human IgG1, kappa, L234A L235A, V domains shown) VH: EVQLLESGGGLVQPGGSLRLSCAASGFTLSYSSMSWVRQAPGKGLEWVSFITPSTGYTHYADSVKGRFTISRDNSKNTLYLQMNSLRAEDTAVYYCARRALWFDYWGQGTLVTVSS VL: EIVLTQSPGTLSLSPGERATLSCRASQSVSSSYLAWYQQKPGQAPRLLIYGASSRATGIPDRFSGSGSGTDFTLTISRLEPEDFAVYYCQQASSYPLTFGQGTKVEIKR = 5.2
7. FS22-053-008-AA/FS28-256-023 mAb^2 (bispecific antibody, human IgG1, kappa, L234A L235A, V domains shown) VH: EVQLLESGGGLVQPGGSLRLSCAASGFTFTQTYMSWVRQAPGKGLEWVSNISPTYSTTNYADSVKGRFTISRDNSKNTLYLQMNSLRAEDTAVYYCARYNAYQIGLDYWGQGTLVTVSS VL: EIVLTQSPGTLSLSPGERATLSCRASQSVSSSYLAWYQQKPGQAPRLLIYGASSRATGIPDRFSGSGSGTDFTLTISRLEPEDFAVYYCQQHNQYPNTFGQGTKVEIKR = 68.6
8. FS22-053-008-AA/FS28-256 (bispecific antibody, human IgG1, kappa, L234A L235A, V domains shown) VH: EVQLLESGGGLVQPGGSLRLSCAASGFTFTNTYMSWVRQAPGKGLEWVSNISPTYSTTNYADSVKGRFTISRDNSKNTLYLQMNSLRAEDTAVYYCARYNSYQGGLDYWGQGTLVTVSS VL: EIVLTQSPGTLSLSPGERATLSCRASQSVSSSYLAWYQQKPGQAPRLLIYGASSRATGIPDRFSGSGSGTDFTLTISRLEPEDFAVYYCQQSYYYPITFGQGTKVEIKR = 889
